target: P2Y purinoceptor 1 (Homo sapiens); assay: Antagonist activity at P2Y1 receptor in washed human platelets assessed as 1 uM 2-methylthio-ADP-induced calcium flux by FLIPR assay; assay type: functional
Sequence (P47900 whole entry): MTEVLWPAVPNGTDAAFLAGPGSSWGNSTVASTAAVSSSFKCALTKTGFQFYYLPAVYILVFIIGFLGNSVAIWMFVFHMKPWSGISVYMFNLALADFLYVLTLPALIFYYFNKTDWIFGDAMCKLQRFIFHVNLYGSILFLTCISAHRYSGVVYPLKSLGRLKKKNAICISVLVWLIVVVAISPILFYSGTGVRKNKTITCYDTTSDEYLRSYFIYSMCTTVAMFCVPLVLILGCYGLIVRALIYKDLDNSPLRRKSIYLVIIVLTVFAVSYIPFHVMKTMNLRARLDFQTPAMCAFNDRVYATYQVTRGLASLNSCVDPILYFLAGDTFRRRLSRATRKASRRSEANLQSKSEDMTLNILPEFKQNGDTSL
pIC50: −log10 of the molar value.
Assign MET to entries whose pIC50 meets or exceeds 10; assign NOT MET to the rest.

The following compounds have reported results that may help.
>>> print(df.to_string())
                                   compound    class
0  CCOC(=O)C1(C)CN(c2ccccc2NC(=O)Nc2nc3ccc(Cl)nc3s2)c2c(O)ccc(Cl)c21 (stereo not drawn)      MET
1  CC(C)CN1CCCC1c1ccc(NC(=O)Nc2ccccc2N2CC(C)(C)c3c(-c4ccc(F)cc4)ccc(O)c32)cc1 (stereo not drawn)      MET
2  CC1(C)CN(c2ccccc2NC(=O)Nc2ccc(OC(F)(F)F)cc2)c2c(O)ccc(-c3cc(F)cc(F)c3)c21  NOT MET

Challenge: Kindly determine if pIC50 recorded for CC1(CC(F)(F)F)CN(c2ccccc2NC(=O)Nc2ccc(OC(F)(F)F)cc2)c2c(O)ccc(Cl)c21 (stereo not drawn) is above or exactly 10.
Response given: NOT MET

Challenge: Kindly determine if pIC50 recorded for CC1(C)CN(c2ccccc2NC(=O)Nc2ccc(OC(F)(F)F)cc2)c2c(O)c(F)cc(-c3ccc(F)cc3)c21 is above or exactly 10.
Response given: NOT MET

###

target: UniProt Q12809; test: Inhibition of human ERG at 1 uM by patch clamp assay
Sequence (Q12809 whole entry): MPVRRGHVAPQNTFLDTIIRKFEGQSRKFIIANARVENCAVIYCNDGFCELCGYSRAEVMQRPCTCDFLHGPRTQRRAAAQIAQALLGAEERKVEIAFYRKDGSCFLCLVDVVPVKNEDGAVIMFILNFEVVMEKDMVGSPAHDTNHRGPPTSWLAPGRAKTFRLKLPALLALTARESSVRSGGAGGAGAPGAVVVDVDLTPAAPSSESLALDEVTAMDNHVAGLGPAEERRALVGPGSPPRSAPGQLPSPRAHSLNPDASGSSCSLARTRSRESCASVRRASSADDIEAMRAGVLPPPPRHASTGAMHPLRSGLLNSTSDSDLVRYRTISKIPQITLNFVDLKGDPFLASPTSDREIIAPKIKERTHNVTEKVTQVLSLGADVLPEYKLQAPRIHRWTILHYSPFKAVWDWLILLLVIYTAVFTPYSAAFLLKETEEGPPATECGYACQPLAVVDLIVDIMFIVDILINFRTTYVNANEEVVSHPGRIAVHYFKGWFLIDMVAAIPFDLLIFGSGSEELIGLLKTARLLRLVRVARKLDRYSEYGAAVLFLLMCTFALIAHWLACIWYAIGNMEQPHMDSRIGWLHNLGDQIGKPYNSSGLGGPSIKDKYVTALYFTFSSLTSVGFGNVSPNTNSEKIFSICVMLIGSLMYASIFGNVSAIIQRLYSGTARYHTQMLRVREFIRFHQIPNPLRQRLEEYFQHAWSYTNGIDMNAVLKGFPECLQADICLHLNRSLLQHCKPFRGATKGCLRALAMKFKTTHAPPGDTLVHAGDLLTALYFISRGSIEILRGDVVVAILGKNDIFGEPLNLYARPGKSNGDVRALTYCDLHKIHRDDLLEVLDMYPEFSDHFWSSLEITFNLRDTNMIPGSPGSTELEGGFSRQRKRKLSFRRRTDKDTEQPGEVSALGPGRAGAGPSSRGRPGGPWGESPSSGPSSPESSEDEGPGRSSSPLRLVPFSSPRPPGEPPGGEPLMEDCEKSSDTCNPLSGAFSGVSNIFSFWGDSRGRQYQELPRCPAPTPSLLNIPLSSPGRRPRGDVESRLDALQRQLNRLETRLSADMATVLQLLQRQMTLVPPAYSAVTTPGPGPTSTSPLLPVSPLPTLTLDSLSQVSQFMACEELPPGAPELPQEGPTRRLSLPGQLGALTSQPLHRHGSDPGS
experimentalEndpoint: inhibition at 1 µM (%)
Numbers only, in %.

>>> print(df.to_string())
                                entrysmiles     studytarget  experimentalendpoint  readoutnumber
0  CC(C)(C)CN1CCC2(CC1)CN(c1ccccc1NC(=O)Nc1nc3ccc(Cl)nc3s1)c1c(O)ccc(Cl)c12  UniProt Q12809    inhibition at 1 µM             57

Kindly review the next compound as well.
Challenge: // map CC(C)(C)CN1CCC2(CC1)CN(c1ccccc1NC(=O)Nc1nc3ccc(Cl)nc3s1)c1c(O)cc(F)c(-c3ccc(F)cc3)c12 to recorded inhibition at 1 µM (system: UniProt Q12809)
Response given: 96

###

assay: Metabolic stability in human liver microsomes assessed as compound remaining at 0.5 uM after 10 mins; type: ADME; details: read-out: Stability
experimentalEndpoint: remaining at 10 min, 0.5 µM (%)
Numbers only, in %.

                                   compound         experimentalendpoint  readoutnumber
0  CC(C)CN1CCCC1c1ccc(NC(=O)Nc2ccccc2N2CC(C)(C)c3c(-c4ccc(F)cc4)ccc(O)c32)cc1 (centres undefined)  remaining at 10 min, 0.5 µM             58
1  CC(C)(C)CN1CCC2(CC1)CN(c1ccccc1NC(=O)Nc1ccc(OC(F)(F)F)cc1)c1c(O)cc(F)c(-c3ccc(F)cc3)c12  remaining at 10 min, 0.5 µM             81
2  CC1(C)CN(c2ccccc2NC(=O)Nc2ccc(OC(F)(F)F)cc2)c2c(O)cc(F)c(-c3cc(F)nc(F)c3)c21  remaining at 10 min, 0.5 µM             75
3  CC1(C)CN(c2ccccc2NC(=O)Nc2ccc(OC(F)(F)F)cc2)c2c(O)cc(F)c(-c3ccc(C(F)(F)F)nc3)c21  remaining at 10 min, 0.5 µM             68
4  CC1(C)CN(c2ccccc2NC(=O)Nc2ccc(OC(F)(F)F)cc2)c2c(O)cc(F)c(-c3ccc(Cl)s3)c21  remaining at 10 min, 0.5 µM             92
5  CC(C)(C)CN1CCC2(CC1)CN(c1ccccc1NC(=O)Nc1ccc(OC(F)(F)F)cc1)c1c(O)cc(F)c(-c3ccc(Cl)cc3)c12  remaining at 10 min, 0.5 µM             78
6  CC1(CC(F)(F)F)CN(c2ccccc2NC(=O)Nc2ccc(OC(F)(F)F)cc2)c2c(O)ccc(Cl)c21 (centres undefined)  remaining at 10 min, 0.5 µM             79
7  Cc1nc(NC(=O)Nc2ccccc2N2CC(C)(C)c3c(-c4ccc(F)cc4)ccc(O)c32)cs1  remaining at 10 min, 0.5 µM             95

# return remaining at 10 min, 0.5 µM for each item in the list
1. CC1(C)CN(c2ccccc2NC(=O)Nc2nc3ccc(Cl)nc3s2)c2c(O)ccc(-c3ccc(F)cc3)c21
2. CC1(C)CN(c2ccccc2NC(=O)Nc2ccc(OC(F)(F)F)cc2)c2c(O)c(F)cc(-c3ccc(F)cc3)c21
3. CC1(C)CN(c2ccccc2NC(=O)Nc2csc(Cl)n2)c2c(O)ccc(-c3ccc(F)cc3)c21

Response given:
[75, 80, 80]

# return remaining at 10 min, 0.5 µM for each item in the list
1. CNC(=O)C1(C)CN(c2ccccc2NC(=O)Nc2nc3ccc(F)cc3s2)c2c(O)ccc(Cl)c21 (centres undefined)
2. CC1(C)CN(c2ccccc2NC(=O)Nc2ccc(OC(F)(F)F)cc2)c2c(O)ccc(-c3ccc(F)c(F)c3)c21
3. CC(C)(C)CN1CCC2(CC1)CN(c1ccccc1NC(=O)Nc1nc3ccc(Cl)nc3s1)c1c(O)cc(F)c(-c3ccc(F)cc3)c12
4. CC1(C)CN(c2ccccc2NC(=O)Nc2ccc(OC(F)(F)F)cc2)c2c(O)cc(F)c(-c3ccc(C(F)(F)F)cn3)c21
5. CC1(C)CN(c2ccccc2NC(=O)Nc2ccc(OC(F)(F)F)cc2)c2c(O)ccc(-c3ccccc3F)c21
6. CC1(C)CN(c2ccccc2NC(=O)Nc2ccc(OC(F)(F)F)cc2)c2c(O)ccc(-c3ccc(C(F)(F)F)cc3)c21
7. CC1(C)CN(c2ccccc2NC(=O)Nc2ccc(OC(F)(F)F)cc2)c2c(O)c(F)cc(-c3ccc(Cl)cc3)c21
8. CC1(C)CN(c2ccccc2NC(=O)Nc2ccc(OC(F)(F)F)cc2)c2c(O)ccc(-c3ccc(Cl)cc3)c21

Response given:
1. 16
2. 90
3. 100
4. 100
5. 62
6. 96
7. 88
8. 84

###

assay: Metabolic stability in mouse liver microsomes assessed as compound remaining at 0.5 uM after 10 mins; format: ADME; conditions: read-out: Stability
Fulfilled if remaining at 10 min, 0.5 µM is below 50%. Not fulfilled if not; exact matches included in Not fulfilled.

The following compounds have reported results that may help.
In [3]: df
Out[3]:
                                   compound          class
0  CC1(C)CN(c2ccccc2NC(=O)Nc2ccc(OC(F)(F)F)cc2)c2c(O)ccc(Cl)c21  Not fulfilled
1  CC1(C)CN(c2ccccc2NC(=O)Nc2ccc(OC(F)(F)F)cc2)c2c(O)cc(F)c(-c3ccc(Cl)cc3)c21  Not fulfilled
2  Cc1nc(NC(=O)Nc2ccccc2N2CC(C)(C)c3c(-c4ccc(F)cc4)ccc(O)c32)cs1  Not fulfilled
3  CC(C)(C)CN1CCC2(CC1)CN(c1ccccc1NC(=O)Nc1nc3ccc(Cl)nc3s1)c1c(O)cc(F)c(-c3ccc(F)cc3)c12  Not fulfilled
4  CC1(C)CN(c2ccccc2NC(=O)Nc2ccc(OC(F)(F)F)cc2)c2c(O)cc(F)c(-c3ccc(C(F)(F)F)nc3)c21  Not fulfilled

Read the next record carefully.
Challenge: Hello, I'm reviewing records and need to know if remaining at 10 min, 0.5 µM of CNC(=O)C1(C)CN(c2ccccc2NC(=O)Nc2nc3ccc(F)cc3s2)c2c(O)ccc(Cl)c21 (stereo unspecified) is below 50%. Could you check?
Response given: Fulfilled

###

What pIC50 was measured for each of the following?
target: P2Y purinoceptor 1 (Homo sapiens); assay: Antagonist activity at P2Y1 receptor in washed human platelets assessed as 1 uM 2-methylthio-ADP-induced calcium flux by FLIPR assay
Give bare numbers, as −log10 of the molar value.

Previously resolved entries follow.
                                entrysmiles  readoutnumber
0  CC(C)(C)CN1CCC2(CC1)CN(c1ccccc1NC(=O)Nc1ccc(OC(F)(F)F)cc1)c1c(O)cc(F)c(-c3ccc(Cl)cc3)c12           9.80
1  Cc1nc(NC(=O)Nc2ccccc2N2CC(C)(C)c3c(-c4ccc(F)cc4)ccc(O)c32)cs1          10.10

Challenge: Please report the recorded pIC50 for CC1(C)CN(c2ccccc2NC(=O)Nc2ccc(OC(F)(F)F)cc2)c2c(O)ccc(-c3cccc(F)c3)c21 .
Response given: 9.82

Values were extracted from ChEMBL document CHEMBL3352472.
